Test: viability loss in pontine glioma line – cell-based, SU-DIPG-XVII, MIPE5.0, CellTiter-Glo, qHTS, dose response (AID 1347060);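 on AC50: cells exposed to compound for 48 hours before viability readout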
Conditions: CellTiter-Glo ATP luminescence
Results filed as inconclusive are left out. The source made the active and inactive calls. Cut-off not given; nearly all actives show AC50 up to about 26 µM.
quantity_measured: AC50

{"compound": "Cc1cc(OCCCS(C)(=O)=O)cc(C)c1-c1cccc(COc2ccc3c(c2)OC[C@H]3CC(=O)O)c1", "AC50": "inactive"}
{"compound": "COc1nc(OCc2cccc(-c3ccccc3)c2C)ccc1CNCCNC(C)=O", "AC50": "7.42 µM (active)"}
{"compound": "CN(C(=O)CNC(=O)/C=C/c1cccc(Cl)c1)C1CCS(=O)(=O)CC1", "AC50": "1.05 µM (active)"}
{"compound": "Nc1ncnc2c1C(=O)N(c1ccc(C3CCC(CC(=O)O)CC3)cc1)CCO2 (centres undefined)", "AC50": "inactive"}

Query string: Any idea what AC50 was measured for "Nc1nc(Nc2ccc3c(c2)CC[C@@H](N2CCCC2)CC3)nn1-c1cc2c(nn1)-c1ccccc1CCC2" ?
Result string: 9.34 µM (active)

Query string: Any idea what AC50 was measured for "CCOc1cc(C(C)(C)C)ccc1C1=N[C@@](C)(c2ccc(Cl)cc2)[C@@](C)(c2ccc(Cl)cc2)N1C(=O)N1CCN(CC(=O)N2CCOCC2)CC1" ?
Result string: 11.5 µM (active)

Query string: Any idea what AC50 was measured for "Cc1c(CN2CCN(C(=O)[C@H](C)O)CC2)sc2c(N3CCOCC3)nc(-c3cnc(N)nc3)nc12" ?
Result string: 0.59 µM (active)

Query string: Any idea what AC50 was measured for "CCn1c(-c2nonc2N)nc2cncc(CNC3CCNCC3)c21" ?
Result string: inactive

Query string: Any idea what AC50 was measured for "COC(=O)c1ccc([C@H]2c3[nH]c4ccccc4c3C[C@H](C(=O)OC)N2C(=O)CCl)cc1" ?
Result string: 13.2 µM (active)
